# protocol-text: Determination of percentage erosion of core tablet
# Type: physicochemical
# assay-context: core: 5 parts acetaminophen + 10 parts of the filler; 3 hours in water at 37° C.
measured-endpoint: Percentage erosion (%) of compression-coated tablets containing acetaminophen

compound=O=C(O)CCC(=O)O value_observed=12.8%
compound=OC[C@H]1O[C@@](CO)(O[C@H]2O[C@H](CO)[C@@H](O)[C@H](O)[C@H]2O)[C@@H](O)[C@@H]1O value_observed=56.1%
compound="OC[C@H]1O[C@@H](O[C@H]2[C@H](O)[C@@H](O)C(O)O[C@@H]2CO)[C@H](O)[C@@H](O)[C@H]1O (stereo partly drawn)" value_observed=7.6%

Values compiled from patent US20060292221A1.
